B1: TPR 5TU (parent)
chain: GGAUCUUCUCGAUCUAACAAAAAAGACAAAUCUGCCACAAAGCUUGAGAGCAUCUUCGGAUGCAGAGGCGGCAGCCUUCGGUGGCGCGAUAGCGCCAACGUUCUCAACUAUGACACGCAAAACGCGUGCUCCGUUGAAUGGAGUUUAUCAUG

variants of: B1; test: polymerase ribozyme fitness, log enrichment relative to wild type (log ratio); higher = more active; in vitro selection for triplet polymerase activity
Fewer inactive variants are shown than the library holds.
Assign polymerase ribozyme fitness (log ratio) to each entry below.
// return a plain number; no unit text

Give polymerase ribozyme fitness (log ratio) for the following variant: A21C G86A -0.32

Using the record for A20C U31G U53A U55G A115C , state its measured polymerase ribozyme fitness (log ratio). -2.82

Query polymerase ribozyme fitness (log ratio) for G59A C75G G94U C95U -3.76

Supply recorded polymerase ribozyme fitness (log ratio) for A60C C93A here. -3.64

State its polymerase ribozyme fitness (log ratio): A47G G140A -3.51

Give polymerase ribozyme fitness (log ratio) for the following variant: U53A U56C G141U -0.733

Return the recorded polymerase ribozyme fitness (log ratio) value; entry: C14A G62A C85A G141A -3.57

Dear colleague, please send me the reported polymerase ribozyme fitness (log ratio) for G88C G143C when you can. -3.92

Determine its reported polymerase ribozyme fitness (log ratio): G62C C85A -3.75

Return the recorded polymerase ribozyme fitness (log ratio) value; entry: A41U U56A C85A -2.38

Give recorded polymerase ribozyme fitness (log ratio). A52C G86C -4.07

Quote polymerase ribozyme fitness (log ratio) reported for A52U G83A C118U A121C please. -2.33

Supply measured polymerase ribozyme fitness (log ratio) of C116G U146G in your reply. -0.306

For the variant G48U C96G , report polymerase ribozyme fitness (log ratio). -1.13

Identify the reported polymerase ribozyme fitness (log ratio) for the following entry. C8G G11U U31A U90G A137C A150U -4.16

Give the reported polymerase ribozyme fitness (log ratio) for this variant. G59U G86A A147U -0.0426

Provide measured polymerase ribozyme fitness (log ratio) value, entry: A24U U61A C93A C116G -4.17

For the variant U15A G94A , report polymerase ribozyme fitness (log ratio). -0.258

Report measured polymerase ribozyme fitness (log ratio); entry is G84A A97U -1.12

Please look at this variant and report its polymerase ribozyme fitness (log ratio): C69G C99A A115G -3.71

Check the records and state polymerase ribozyme fitness (log ratio) for C85A U148A -3.51

Supply measured polymerase ribozyme fitness (log ratio) of U4C C10U U56G A60U G92U in your reply. -3.76

State its polymerase ribozyme fitness (log ratio): A21U U53A C57U G83A C95U -4.06

Please supply the value of reported polymerase ribozyme fitness (log ratio) for the item G83A C96U C118U -0.697

Dear colleague, please send me the reported polymerase ribozyme fitness (log ratio) for A40U A98G when you can. -0.242

Supply measured polymerase ribozyme fitness (log ratio) of C54U A97C in your reply. -0.294

State, in one line, measured polymerase ribozyme fitness (log ratio) of G59C C79U -3.43

Recall and state the measured polymerase ribozyme fitness (log ratio) for G25A U61A . -3.19

Specify measured polymerase ribozyme fitness (log ratio) for `G141U` . 1.61

Given G48U A98G , respond with its polymerase ribozyme fitness (log ratio). -0.0311

Write down polymerase ribozyme fitness (log ratio) measured for item U134A A137G -3.22

State its polymerase ribozyme fitness (log ratio): C18U A39G U53C -3.19

Please report polymerase ribozyme fitness (log ratio) for the following variant: A16G G86A -0.891
